The molecules listed here are annotated with their IC50.
Molecular target: PI3Kβ (Homo sapiens, UniProt P42338)
Construct: made in house
Sequence (P42338 whole entry): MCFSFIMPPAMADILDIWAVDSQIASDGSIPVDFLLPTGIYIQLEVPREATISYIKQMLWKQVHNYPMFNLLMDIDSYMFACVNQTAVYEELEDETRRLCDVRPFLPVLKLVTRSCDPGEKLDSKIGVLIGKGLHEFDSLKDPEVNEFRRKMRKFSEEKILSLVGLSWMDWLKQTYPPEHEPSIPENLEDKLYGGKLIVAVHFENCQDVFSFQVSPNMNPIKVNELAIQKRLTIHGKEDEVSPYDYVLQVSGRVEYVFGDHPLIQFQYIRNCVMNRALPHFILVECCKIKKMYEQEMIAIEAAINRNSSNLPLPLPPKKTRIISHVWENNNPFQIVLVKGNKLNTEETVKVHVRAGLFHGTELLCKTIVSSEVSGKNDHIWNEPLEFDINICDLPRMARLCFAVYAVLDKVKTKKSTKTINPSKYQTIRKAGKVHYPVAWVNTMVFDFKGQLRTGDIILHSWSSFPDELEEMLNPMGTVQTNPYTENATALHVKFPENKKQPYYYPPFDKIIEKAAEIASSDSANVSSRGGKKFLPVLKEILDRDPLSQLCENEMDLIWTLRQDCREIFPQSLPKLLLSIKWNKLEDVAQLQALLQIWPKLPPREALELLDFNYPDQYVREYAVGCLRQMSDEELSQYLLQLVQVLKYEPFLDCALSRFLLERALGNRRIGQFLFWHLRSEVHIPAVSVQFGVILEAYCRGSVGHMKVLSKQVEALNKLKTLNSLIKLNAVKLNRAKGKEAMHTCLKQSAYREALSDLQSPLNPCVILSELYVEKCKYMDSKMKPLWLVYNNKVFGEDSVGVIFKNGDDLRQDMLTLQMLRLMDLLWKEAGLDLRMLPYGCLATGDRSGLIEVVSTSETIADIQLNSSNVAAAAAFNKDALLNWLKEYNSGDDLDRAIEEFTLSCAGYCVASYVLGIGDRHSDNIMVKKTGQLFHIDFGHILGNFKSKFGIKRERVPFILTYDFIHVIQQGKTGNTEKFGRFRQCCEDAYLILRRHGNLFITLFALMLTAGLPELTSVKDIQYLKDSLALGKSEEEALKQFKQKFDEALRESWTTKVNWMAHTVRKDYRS
Sequence (P27986 whole entry partner): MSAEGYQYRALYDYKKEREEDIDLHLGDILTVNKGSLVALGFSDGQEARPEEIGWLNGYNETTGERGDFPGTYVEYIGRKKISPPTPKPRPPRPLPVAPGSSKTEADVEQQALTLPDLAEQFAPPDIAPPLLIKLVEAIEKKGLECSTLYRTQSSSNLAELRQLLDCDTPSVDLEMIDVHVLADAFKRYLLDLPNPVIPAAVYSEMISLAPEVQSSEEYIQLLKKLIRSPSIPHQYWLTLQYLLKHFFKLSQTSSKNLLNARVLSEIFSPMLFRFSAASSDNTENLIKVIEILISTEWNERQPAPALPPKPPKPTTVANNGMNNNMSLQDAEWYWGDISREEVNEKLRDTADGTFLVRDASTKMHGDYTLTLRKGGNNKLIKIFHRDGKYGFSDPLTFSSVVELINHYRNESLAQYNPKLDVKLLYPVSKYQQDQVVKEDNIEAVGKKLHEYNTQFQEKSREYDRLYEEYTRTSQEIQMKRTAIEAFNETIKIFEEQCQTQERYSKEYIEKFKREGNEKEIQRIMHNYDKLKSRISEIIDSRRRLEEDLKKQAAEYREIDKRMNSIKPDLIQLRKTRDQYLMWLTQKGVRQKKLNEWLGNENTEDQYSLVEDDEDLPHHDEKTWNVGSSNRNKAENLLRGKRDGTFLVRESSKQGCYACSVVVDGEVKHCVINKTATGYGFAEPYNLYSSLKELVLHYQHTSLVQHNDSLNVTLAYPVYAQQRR
Experiment: TR-FRET enzymatic activity assay, PI3Kβ
Assay type: biochemical
Settings: recombinant heterodimeric PI3Kβ 25-50 pM, 2× Km ATP, 30 minutes at 25°C
Description: The compounds of formula (I) were characterized for their enzymatic activity against the PI3K isoforms. The activities were measured using a time-resolved fluorescence resonance energy transfer (TR-FRET) assay.
Reply with just the number (in nM).

Worked examples follow.
{"molecule": "C[C@H](Nc1nc(N)nc(N)c1C#N)c1nc2cccc(Cl)c2c(=O)n1N1CCN(CC(C)(C)C)CC1", "measuredQuantity": "IC50", "unitTag": "nM", "experimentalValue": 4}
{"molecule": "CC[C@H](Nc1nc(N)nc(N)c1C#N)c1nc2cccc(Cl)c2c(=O)n1N1CCN(Cc2ccccc2)CC1", "measuredQuantity": "IC50", "unitTag": "nM", "experimentalValue": 56}
{"molecule": "C[C@H](Nc1nc(N)nc(N)c1C#N)c1nc2cccc(Cl)c2c(=O)n1[C@H]1CCNC1", "measuredQuantity": "IC50", "unitTag": "nM", "experimentalValue": 350}
{"molecule": "Cc1nc(N)nc(N[C@@H](C)c2nc3c(F)ccc(Cl)c3c(=O)n2N2CCNCC2)c1C#N", "measuredQuantity": "IC50", "unitTag": "nM", "experimentalValue": 2}
{"molecule": "CC[C@H](Nc1nc(N)nc(C)c1C#N)c1nc2cccc(Cl)c2c(=O)n1C1CCNCC1", "measuredQuantity": "IC50", "unitTag": "nM", "experimentalValue": 3}

In plain terms, C[C@H](Nc1nc(N)nc(N)c1C#N)c1nc2cccc(Cl)c2c(=O)n1N1CCNC(C(F)(F)F)C1 (stereo partly shown) has a documented IC50 of 150

In plain terms, C[C@H](Nc1nc(N)nc(N)c1Cl)c1nc2cccc(Cl)c2c(=O)n1[C@@H]1CCCNCC1 has a documented IC50 of 180

###

target: PI3Kβ (Homo sapiens, UniProt P42338); construct: made in house; test: TR-FRET enzymatic activity assay, PI3Kβ; type: biochemical; conditions: recombinant heterodimeric PI3Kβ 25-50 pM, 2× Km ATP, 30 minutes at 25°C
measuredQuantity: pIC50
Interpret pIC50 as the negative base-10 log of the concentration measured in mol/L.

{"compound": "C[C@H](Nc1ncnc(N)c1C#N)c1nc2cccc(Cl)c2c(=O)n1C1CCNC1 (stereo partly shown)", "measuredQuantity": "pIC50", "experimentalValue": 6.80}
{"compound": "C[C@H](Nc1ncnc(N)c1C#N)c1nc2cccc(Cl)c2c(=O)n1C1CCN(CC(F)(F)F)CC1", "measuredQuantity": "pIC50", "experimentalValue": 5.66}
{"compound": "Cc1nc(N)nc(N[C@@H](C)c2nc3c(F)ccc(Cl)c3c(=O)n2C2[C@H]3CNC[C@@H]23)c1C#N (stereo in doubt)", "measuredQuantity": "pIC50", "experimentalValue": 8.70}
{"compound": "C[C@H](Nc1nc(N)nc(N)c1C#N)c1nc2cccc(Cl)c2c(=O)n1N1CCN(Cc2ccccc2)CC1", "measuredQuantity": "pIC50", "experimentalValue": 8.10}
{"compound": "O=c1c2c(Cl)ccc(F)c2nc([C@@H](Nc2ncnn3ccnc23)C2CC2)n1N1CCNCC1", "measuredQuantity": "pIC50", "experimentalValue": 7.32}
{"compound": "Cc1nc(N)nc(N[C@@H](C)c2nc3cccc(Cl)c3c(=O)n2N2CCN(CC(F)F)CC2)c1C#N", "measuredQuantity": "pIC50", "experimentalValue": 6.52}
{"compound": "C[C@H](Nc1ncnn2ccnc12)c1nc2c(F)ccc(F)c2c(=O)n1N1CCNCC1", "measuredQuantity": "pIC50", "experimentalValue": 6.70}
{"compound": "C[C@H](Nc1nc(N)nc(N)c1Cl)c1nc2cccc(Cl)c2c(=O)n1N1CCN(CC(F)(F)F)CC1", "measuredQuantity": "pIC50", "experimentalValue": 5.21}
{"compound": "CC[C@H](Nc1ncnc2scnc12)c1nc2cccc(Cl)c2c(=O)n1N1CCNCC1", "measuredQuantity": "pIC50", "experimentalValue": 7.60}
{"compound": "C[C@H](Nc1nc(N)nc(N)c1C#N)c1nc2cccc(Cl)c2c(=O)n1C1CCN(CC(F)F)CC1", "measuredQuantity": "pIC50", "experimentalValue": 6.14}

In plain terms, C[C@H](Nc1nc(N)nc(N)c1C#N)c1nc2cccc(Cl)c2c(=O)n1[C@H]1CCOC1 has a documented pIC50 of 6.72

In plain terms, C[C@H](Nc1nc(N)nc(N)c1C#N)c1nc2cccc(Cl)c2c(=O)n1N1CCN(CC(F)F)CC1 has a documented pIC50 of 6.28

In plain terms, C[C@H](Nc1nc(N)nc(N)c1C#N)c1nc2cccc(Cl)c2c(=O)n1C1C[C@H]2CC[C@@H](C1)N2C (stereo partly shown) has a documented pIC50 of 6.54

Where do these numbers come from? They come from patent EP3154958B1.
